- Tested on: IL-6 (THP-1 cells)
- run-description: IL-6 inhibition in LPS-stimulated THP-1 monocytes (HTRF)
- Assay type: cell-based
- measurement-context: Homo sapiens, 500 ng/mL LPS, IL-6 HTRF, Table 6
Record form. Attribute: EC50. Fill in for each entry.
Answers are plain numbers, in µM.

Reference set, count: 5
Cn1cc(-c2ccc3[nH]nc(-c4nc5c(-c6cc(F)cc(CNS(C)(=O)=O)c6)cccc5[nH]4)c3n2)cn1; 3.15
CC(C)(C)CC(=O)Nc1cncc(-c2ccc3[nH]nc(-c4nc5ccccc5[nH]4)c3n2)c1; 2.5
CN1CCN(c2cccc3[nH]c(-c4n[nH]c5ccc(-c6cncc(OC7CCCCC7)c6)nc45)nc23)CC1; 4.9
CS(=O)(=O)NCc1cc(F)cc(-c2cccc3[nH]c(-c4n[nH]c5ccc(-c6cncc(CNCc7ccccc7)c6)nc45)nc23)c1; 1.34
CC(C)Nc1cncc(-c2ccc3[nH]nc(-c4nc5c(-c6cc(F)cc(NCCN(C)C)c6)cccc5[nH]4)c3n2)c1; 0.975

Look up EC50 for the entries below, preserving their order.
1. Fc1ccccc1-c1cccc2[nH]c(-c3n[nH]c4ccc(-c5cncc(CNCC6CCCC6)c5)nc34)nc12
2. c1ccc(CNCc2cncc(-c3ccc4[nH]nc(-c5nc6c(-c7ccsc7)cccc6[nH]5)c4n3)c2)cc1
3. Oc1cncc(-c2ccc3[nH]nc(-c4nc5c(N6CCCCC6)cccc5[nH]4)c3n2)c1
4. CN(C)CCNc1cc(F)cc(-c2cccc3[nH]c(-c4n[nH]c5ccc(-c6cncc(CNCC7CCCC7)c6)nc45)nc23)c1

a:
1. 3.6
2. 5.33
3. 6.77
4. 4.26
